Assay target: HLA-A*01:01_… (HLA-PEPTIDE target G10), recombinant soluble complex (human, UniProt P04439-2 25-297; P61769 21-119, enzymatically biotinylated (BirA) for screening and functional assays)
Assay notes: scFv PPE ELISA
Assay endpoint: fold binding to target pHLA over minipool of negative control pHLAs

Task: Any idea what fold binding to target pHLA over minipool of negative control pHLAs was measured for scFv R3G10-P4D04 (scFv, V domains shown) VH: QVQLVQSGAEVKKPGASVKVSCKASGYTFTGYYVHWVRQAPGQGLEWMGIIAPSDGSTNYAQKFQGRVTMTRDTSTSTVYMELSSLRSEDTAVYYCARDPGGYMDVWGKGTTVTVSS VL: DIQMTQSPSSLSASVGDRVTITCRASQSISSYLAWYQQKPGKAPKLLIYDASKLETGVPSRFSGSGSGTDFTLTISSLQPEDFATYYCQQSYGVPTFGQGTKLEIK ?
Result: ≥ 3 fold

Task: Item scFv R3G10-P3E04 (scFv, V domains shown) VH: QVQLVQSGAEVKKPGASVKVSCKASGNTFIGYYVHWVRQAPGQGLEWVGIINPNGGSISYAQKFQGRVTMTRDTSTSTVYMELSSLRSEDTAVYYCARGSGDPNYYYYYGLDVWGQGTTVTVSS VL: DIQMTQSPSSLSASVGDRVTITCQASQDISNYLNWYQQKPGKAPKLLIYAASNLQSGVPSRFSGSGSGTDFTLTISSLQPEDFATYYCQQANSLPYTFGQGTKVEIK has what recorded fold binding to target pHLA over minipool of negative control pHLAs?
Result: ≥ 3 fold

Task: Using the record for scFv R3G10-P4C05 (scFv, V domains shown) VH: QVQLVQSGAEVKKPGASVKVSCKASGYTFTGYYMHWVRQAPGQGLEWMGIIGPSDGSTTYAQKFQGRVTMTRDTSTSTVYMELSSLRSEDTAVYYCARAENGMDVWGQGTTVTVSS VL: DIQMTQSPSSLSASVGDRVTITCRASQRISSYLNWYQQKPGKAPKLLIYSASTLQSGVPSRFSGSGSGTDFTLTISSLQPEDFATYYCQQSYSTPFTFGPGTKVDIK , report its fold binding to target pHLA over minipool of negative control pHLAs.
Result: ≥ 3 fold
